The reported numbers originate from ChEMBL document CHEMBL1154087.

# EXPERIMENTAL_PROTOCOL: Ratio of drug level in brain to plasma in Sprague-Dawley rat at 3 mg/kg, iv after 10 mins
# Format: ADME, organism-based
# Parameters: dose 3 mg/kg, route intravenous
Class fulfilled: Kp at 10 min at least 0.1. Class not fulfilled: Kp at 10 min below 0.1.

| LINE_NOTATION | LABEL_CLASS |
| --- | --- |
| CCS(=O)(=O)N1CC2(CCN(C(=O)Nc3cn(-c4cccc(F)c4)cn3)CC2)c2ccccc21 | fulfilled |
| CCS(=O)(=O)N1CC2(CCN(C(=O)Nc3cn(-c4ccccc4)cn3)CC2)c2ccccc21 | fulfilled |
| CCS(=O)(=O)N1CC2(CCN(C(=O)Nc3cn(-c4cccc(OC)c4)cn3)CC2)c2ccccc21 | fulfilled |
| CS(=O)(=O)N1CC2(CCN(C(=O)Nc3cc(-c4ccccc4)no3)CC2)c2ccccc21 | fulfilled |

Hi team, for "CCS(=O)(=O)N1CC2(CCN(C(=O)Nc3cn(-c4ccccc4F)cn3)CC2)c2ccccc21" , is the recorded Kp at 10 min at or above 0.1? fulfilled

Hi team, for "CS(=O)(=O)N1CC2(CCN(C(=O)Nc3ccc(-c4ccccn4)cc3)CC2)c2ccccc21" , is the recorded Kp at 10 min at or above 0.1? fulfilled

Hi team, for "CS(=O)(=O)N1CC2(CCN(C(=O)Nc3ccc4ncccc4c3)CC2)c2ccccc21" , is the recorded Kp at 10 min at or above 0.1? not fulfilled

Hi team, for "CS(=O)(=O)N1CC2(CCN(C(=O)Nc3cc(-c4ccccc4)n[nH]3)CC2)c2ccccc21" , is the recorded Kp at 10 min at or above 0.1? not fulfilled
